molecular target: M1 muscarinic receptor (Homo sapiens, UniProt P11229); experiment: Functional mobilization of intracellular calcium (FLIPR), M1-CHO cells; details: CHO cells expressing M1, calcium mobilization
Sequence (P11229 whole entry): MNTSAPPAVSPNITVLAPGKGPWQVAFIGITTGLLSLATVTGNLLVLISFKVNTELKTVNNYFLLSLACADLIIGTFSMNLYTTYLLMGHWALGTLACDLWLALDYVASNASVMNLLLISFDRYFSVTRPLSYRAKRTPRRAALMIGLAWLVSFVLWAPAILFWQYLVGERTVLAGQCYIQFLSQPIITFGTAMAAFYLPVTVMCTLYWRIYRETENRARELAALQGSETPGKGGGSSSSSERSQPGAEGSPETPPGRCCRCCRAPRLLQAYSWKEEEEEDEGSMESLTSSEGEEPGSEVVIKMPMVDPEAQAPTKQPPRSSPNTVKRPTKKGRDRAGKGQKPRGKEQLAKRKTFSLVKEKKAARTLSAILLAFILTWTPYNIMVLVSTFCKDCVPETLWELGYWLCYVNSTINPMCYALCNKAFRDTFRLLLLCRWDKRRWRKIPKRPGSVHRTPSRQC
pEC50: −log10 of the molar value.
READOUT TYPE: pEC50

Qu. Given CN1C(=O)C[C@@H]2CC3(CCN(C4CC5CCC(C5)C4)CC3)c3ccccc3[C@@H]21 (some centres unmarked) [Compound 15] , state its recorded pEC50.
Ans. 5.30 to 5.70

Qu. Next entry: c1ccc2c(c1)C1OCCC1CC21CCN(C2C[C@H]3CC[C@@H]2C3)CC1 (some centres unmarked) [Compound 6]
Ans. < 5.30

Qu. Next entry: CN1C(=O)C[C@@H]2CC3(CCN(C4CCCCCC4)CC3)c3ccccc3[C@@H]21 [Compound 29]
Ans. > 5.70

Qu. Next entry: c1ccc2c(c1)C1OCCC1CC21CCN(C2CCCCCC2)CC1 (centres unmarked) [Compound 11]
Ans. 5.30 to 5.70

Qu. Next entry: c1ccc2c(c1)C1OCCC1CC21CCN(C2CCCCC2)CC1 (centres unmarked) [Compound 26]
Ans. < 5.30

Qu. Next entry: CCOC(=O)N1CCC(N2CCC3(CC2)C[C@H]2CC(=O)N(CC(=O)O)[C@H]2c2ccccc23)CC1 [Compound 13]
Ans. < 5.30

Qu. Next entry: COCCN1C(=O)C[C@@H]2CC3(CCN(C4CCCCC4)CC3)c3ccccc3[C@@H]21 [Compound 16]
Ans. < 5.30

Qu. Next entry: COCCN1C(=O)C[C@@H]2CC3(CCN(CC4CCCCC4)CC3)c3ccccc3[C@@H]21 [Compound 22]
Ans. 5.30 to 5.70
